Test: antimalarial activity against Dd2 strain (AID 2302);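 note: 0% = DMSO untreated growth and 100% = chloroquine plus artemisinin killed control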
Conditions: P. falciparum Dd2 in RBCs, LDH growth readout, 72 h; at 2 µM; stronger effect = higher value
Observation type: growth inhibition (%)
Numbers only, in %.

# Compound, growth inhibition (%)
rows = [
    ("CCOC(=O)N1CCN(C(=O)Nc2ccc(Cl)cc2)CC1", -2),
    ("CC(=O)c1ccc2c(c1)CCN(CCC1CCC(NC(=O)c3cc4ccccc4[nH]3)CC1)CC2 (centres undefined)", 47),
    ("C=C[C@]1(C)C[C@@H](OC(=O)CNC[C@@H](O)CN2C[C@H](c3ccnc4ccc(OC)nc34)OC2=O)[C@]2(C)[C@H](C)CC[C@]3(CCC(=O)[C@H]32)[C@@H](C)[C@@H]1O", 82),
]

// COc1ccc(CCNC(=O)c2cnc3c(c2)nc(-c2cnc(-c4ccccc4)[nH]2)n3CCc2cnc[nH]2)cc1 : growth inhibition value = 70
